Where these numbers come from: PubChem BioAssay (NCATS)

- Protocol Summary: Viability counterscreen for agonist of constitutive androstane receptor (CAR) against the NCATS DSHEA and TCM libraries (AID 1794838);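 further: HepG2 cells with CYP2B6 reporter and hCAR plus 0.75 µM PK11195 antagonist; cells exposed to compound for 24 h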
- Condition Description: HepG2 cell viability counterscreen, CAR agonist assay; series mostly up to 40 µM
- Description: Assay Development and Screening Technology Laboratory (ADST) National Center for Advancing Translational Sciences (NCATS), Rockville, MD National Institute of Health (NIH), Bethesda, Maryland Dietary Supplements and Natural Products have minor oversight of their safety and efficacy. […] Overall, we highlight four significant bioactivity profiles (measured by p-values) as examples of this prediction. […] 8; Detector 1; Fluorescence intensity; ViewLux plate reader (excitation 405 nm, emission 540 nm). […]
Results filed as inconclusive are left out. Active and inactive are the calls of the source. The call rests on the fitted dose curve; in most records, active means well fitted curve in the direction sought with a large enough effect; inconclusive means small, poorly fitted or top-dose-only effect, or another doubt; inactive means no such curve, though single readings can be large or run the other way.
Measured Metric: outcome

COc1cc2c(cc1O)CC1NCCc3cc(OC)c(OC)c-2c31 (stereo not drawn) : inactive
CCCCCCCCCCCCCCCCCCCC(=O)O : inactive
CC[C@@H]1CN2CC[C@]3(C(=O)Nc4ccccc43)[C@@H]2C[C@@H]1/C(=C\OC)C(=O)OC : inactive
